# Protocol Text: Partition coefficient (logP)
# Assay type: physicochemical
# Measurement Setup: octanol/water
Measured logP values are reported for all entries that follow.
Test Readout: logP

| Molecular String | Limit Sign | Result Number |
| --- | --- | --- |
| O=C(O)COc1ccc(-c2c3nc(c(-c4ccccc4)c4ccc(s4)c(-c4ccccc4)c4nc(c(-c5ccccc5)c5ccc2s5)C=C4)C=C3)cc1 | > | 3.5 |
| O=C(O)COc1ccc(-c2c3nc(c(-c4ccccc4)c4ccc(s4)c(-c4ccccc4)c4nc(c(-c5ccc(OCC(=O)O)cc5)c5ccc2s5)C=C4)C=C3)cc1 | = | 0.036 |
| O=C(O)COc1ccc(-c2c3nc(c(-c4ccc(OCC(=O)O)cc4)c4ccc(s4)c(-c4ccc(OCC(=O)O)cc4)c4nc(c(-c5ccc(OCC(=O)O)cc5)c5ccc2s5)C=C4)C=C3)cc1 | = | -0.95 |
| O=C(O)COc1ccc(-c2c3nc(c(-c4ccc(OCC(=O)O)cc4)c4ccc(s4)c(-c4ccc(OCC(=O)O)cc4)c4nc(c(-c5ccccc5)c5ccc2s5)C=C4)C=C3)cc1 | = | -1.49 |
| O=C(O)COc1ccc(-c2c3nc(c(-c4ccccc4)c4ccc(s4)c(-c4ccccc4)c4nc(c(-c5ccc(OCC(=O)O)cc5)c5ccc2[se]5)C=C4)C=C3)cc1 | = | -0.67 |
| O=S(=O)(O)c1ccc(-c2c3nc(c(-c4ccc(F)cc4)c4ccc(s4)c(-c4ccc(F)cc4)c4nc(c(-c5ccc(S(=O)(=O)O)cc5)c5ccc2s5)C=C4)C=C3)cc1 | = | -1.9 |
